# TARGET: recombinant rabbit GSK-3β (Oryctolagus cuniculus)
# Sequence (G1T8E2 1-432): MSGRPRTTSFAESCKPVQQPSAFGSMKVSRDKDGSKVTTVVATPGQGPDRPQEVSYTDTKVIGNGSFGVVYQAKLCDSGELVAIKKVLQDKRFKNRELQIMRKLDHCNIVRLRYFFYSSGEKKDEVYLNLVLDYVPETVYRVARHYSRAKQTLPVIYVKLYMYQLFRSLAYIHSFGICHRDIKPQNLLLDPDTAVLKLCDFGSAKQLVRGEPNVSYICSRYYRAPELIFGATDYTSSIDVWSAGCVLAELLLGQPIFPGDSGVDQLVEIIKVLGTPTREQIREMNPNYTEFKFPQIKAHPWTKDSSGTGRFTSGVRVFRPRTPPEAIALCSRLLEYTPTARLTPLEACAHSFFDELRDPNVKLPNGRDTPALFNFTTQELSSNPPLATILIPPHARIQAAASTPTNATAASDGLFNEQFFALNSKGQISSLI
# ASSAY_METHOD_TEXT: Glycogen Synthase Kinase-3 assay (PPI-2 phosphorylation)
# RUN_CONDITIONS: PPI-2 substrate, 33P-ATP, 90 minutes at 30° C.
pIC50: −log10 of the molar value.
Examples of compounds with documented pIC50 follow.
ENDPOINT_LABEL: pIC50

compound="O=C1NC(=O)C(c2cn(-c3cnc4ccccc4c3)c3ccccc23)=C1c1cn(CCO)c2ccccc12 [Compound 3]" target="recombinant rabbit GSK-3β (Oryctolagus cuniculus)" measured_number=7.51
compound="O=C1NC(=O)C(c2cn(-c3cccnc3)c3ccccc23)=C1c1cn(CCn2ncnn2)c2ccccc12 [Compound 9]" target="recombinant rabbit GSK-3β (Oryctolagus cuniculus)" measured_number=8.15
compound="O=C1NC(=O)C(c2cn(-c3cncnc3)c3ccccc23)=C1c1cn(CCO)c2ccccc12 [Compound 2]" target="recombinant rabbit GSK-3β (Oryctolagus cuniculus)" measured_number=8.10
compound="O=C1NC(=O)C(c2cn(-c3cccnc3)c3ccccc23)=C1c1cn(CCn2cnnn2)c2ccccc12 [Compound 10]" target="recombinant rabbit GSK-3β (Oryctolagus cuniculus)" measured_number=7.77
compound="Cn1cc(C2=C(c3cn(-c4cccnc4)c4ccccc34)C(=O)NC2=O)c2ccccc21 [Compound 8]" target="recombinant rabbit GSK-3β (Oryctolagus cuniculus)" measured_number=7.00
compound="O=C1NC(=O)C(c2cn(-c3cccnc3)c3ccccc23)=C1c1cn(CCO)c2ccccc12 [Compound 1]" target="recombinant rabbit GSK-3β (Oryctolagus cuniculus)" measured_number=7.60
compound="O=C1NC(=O)C(c2cn(-c3cccnc3)c3ccccc23)=C1c1cn(CCCO)c2ccccc12 [Compound 4]" target="recombinant rabbit GSK-3β (Oryctolagus cuniculus)" measured_number=7.62
